ASSAY DETAILS: modulators of MEP2-GFP levels in yeast, confirmation, S. cerevisiae, flow cytometry GFP, cherry picks (AID 2272);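 further: ratio of well signal to plate DMSO mean so 100% equals DMSO level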
TEST CONDITIONS: S. cerevisiae MEP2-GFP strain, 3 h, at 10 µM, stronger effect = higher value

# COMPOUND, READOUT UNITS, GFP response vs DMSO
rows = [
    ("CN(C)c1ccc(/C=C/c2ccc3ccccc3[n+]2C)cc1", "%", 107),
    ("C=CCn1c(=O)c(C(=O)Nc2ccccc2C(=O)OCC)c(O)c2ccccc21", "%", 99.5),
    ("CCOC(=O)c1cnn(-c2cc(C)nc3c(-c4ccccc4)c(C)nn23)c1N", "%", 105),
    ("O=c1[nH]c(-c2ccccn2)nc(C(F)(F)F)c1Br", "%", 118),
    ("O=C(NCCCSc1ccccc1)c1cc(Br)ccc1O", "%", 100),
    ("S=c1[nH]nc(NCCCN2CCOCC2)s1", "%", 103),
    ("Cc1nn(Cc2c(Cl)cccc2Cl)c(C)c1NC(=O)c1sc2ccccc2c1Cl", "%", 99.5),
    ("COc1ccc(-c2ccc(SCC(=O)N3c4ccccc4CC3C)nn2)cc1OC (stereo unspecified)", "%", 102),
    ("O=C(NCc1ccc2c(c1)OCO2)c1nc(S(=O)(=O)Cc2ccccc2)ncc1Cl", "%", 99.5),
    ("COc1cc(N2C(=O)C=CC2=O)c(OC)cc1Cl", "%", 133),
    ("CCCc1[nH]nc2c1C(c1cc(OC)cc(OC)c1)C(C#N)=C(N)O2 (stereo unspecified)", "%", 102),
]

###

Entries and their measured GFP response relative to DMSO follow.
ASSAY DETAILS: LAP4-GFP expression modulators in yeast, confirmation, cell-based, cherry picks, flow cytometry, mother/daughter gates (AID 2271);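 further: ratio of sample to DMSO plate mean so 100% equals DMSO level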
TEST CONDITIONS: S. cerevisiae LAP4-GFP strain, 3 h, measured here: mother cell gate response, at 10 µM, stronger effect = higher value, 100 means same as DMSO control
ATTRIBUTE MEASURED: GFP response relative to DMSO (%)

# COMPOUND, ATTRIBUTE MEASURED, MEASURED RESULT
records = [
    ("Nc1ccccc1NC(=O)c1ccccc1", "GFP response relative to DMSO", 99.5),
    ("COc1cccc(CNC(=O)CCC(=O)N2Cc3cccc(OC)c3Oc3ncccc32)c1OC", "GFP response relative to DMSO", 94),
    ("CC1=NNC(=O)/C1=C\\c1cn(-c2ccccc2)nc1-c1ccc(Cl)cc1", "GFP response relative to DMSO", 114),
    ("OC1(c2ccc(F)cc2)CSC(=Nc2cccnc2)N1Cc1ccco1 (configuration not stated)", "GFP response relative to DMSO", 104),
    ("O=C(OCCOc1ccccc1)c1n[nH]c2ccccc12", "GFP response relative to DMSO", 101),
    ("O=C(CCc1nc(-c2ccccc2)no1)Nc1cc(C(F)(F)F)ccc1Cl", "GFP response relative to DMSO", 92),
    ("O=[N+]([O-])c1ccc(SCCc2ccncc2)cc1", "GFP response relative to DMSO", 98.3),
    ("CCOc1ccc(Nc2nc(N(C)c3ccccc3)nc(N)c2[N+](=O)[O-])cc1", "GFP response relative to DMSO", 95.6),
    ("CCN(CC)N=Nc1[nH]nc2nc(C)cc(C)c12", "GFP response relative to DMSO", 116),
    ("COc1cc(NC(=O)c2cccc(F)c2)ccc1NC(=O)c1cc2ccccc2o1", "GFP response relative to DMSO", 97.5),
    ("Cc1ccc(/C=C/C(=O)c2ccccc2)cc1", "GFP response relative to DMSO", 99.5),
    ("N#C/C(=C\\c1ccc(N2CCOCC2)o1)c1ccccc1", "GFP response relative to DMSO", 103),
    ("O=C(N/N=C/c1ccccn1)c1sc2ccccc2c1Cl", "GFP response relative to DMSO", 126),
    ("O=C(OCc1cc(Cl)ccc1OC(F)F)c1ccc([N+](=O)[O-])o1", "GFP response relative to DMSO", 120),
    ("COC(=O)c1ccc(CS(=O)(=O)c2ccc(F)cc2)o1", "GFP response relative to DMSO", 98.4),
    ("c1ccc(-c2cccc(-c3ccccn3)n2)nc1", "GFP response relative to DMSO", 268),
    ("O=C(Nc1ccc(Cl)cc1Cl)c1cccc(N2C(=O)C=CC2=O)c1", "GFP response relative to DMSO", 179),
    ("O=C1C(Cl)=C(Nc2ccccc2O)C(=O)N1c1ccccc1", "GFP response relative to DMSO", 113),
    ("CC(=O)Nc1cccc(/C(C)=N/NC(=O)c2ccccc2Cl)c1", "GFP response relative to DMSO", 99.3),
    ("O=C(CSCc1cccc(Br)c1)N=Nc1c(O)[nH]c2ccccc12", "GFP response relative to DMSO", 126),
    ("Cc1cc(NC(c2ccc(Cl)cc2)c2ccc3cccnc3c2O)no1 (configuration not stated)", "GFP response relative to DMSO", 113),
    ("CCCOc1ccc(N2C(=O)CC(SCCN)C2=O)cc1 (configuration not stated)", "GFP response relative to DMSO", 99.3),
    ("CC(C)(C)NC(=O)c1ccccc1-c1nc(-c2ccccc2Cl)no1", "GFP response relative to DMSO", 99.4),
    ("CC1CC2=C(CC1/C=N/NC(N)=S)C(C)(C)CCC2 (configuration not stated)", "GFP response relative to DMSO", 113),
    ("COc1ccc(CCNc2nc(-c3sc(C)nc3C)cs2)cc1OC", "GFP response relative to DMSO", 105),
    ("CNC(=O)/C(C#N)=C/c1c(N(Cc2ccccc2)Cc2ccccc2)nc2ccccn2c1=O", "GFP response relative to DMSO", 101),
    ("Cc1ccc(NC(=O)c2nc(S(=O)(=O)Cc3ccccc3)ncc2Cl)cc1", "GFP response relative to DMSO", 140),
    ("COc1cccc(/C=N/Nc2nc(-c3cccnc3)nc3ccccc23)c1", "GFP response relative to DMSO", 106),
    ("O=C(c1cccc(COCC(F)(F)C(F)F)c1)N1CCN(c2ccccc2)CC1", "GFP response relative to DMSO", 97.5),
    ("COc1cc(C(=O)ON=C2C3CC4CC(C3)CC2C4)cc(OC)c1OC", "GFP response relative to DMSO", 111),
    ("O=C(Oc1ccnc2cc(Cl)ccc12)N1CCCCCC1", "GFP response relative to DMSO", 117),
    ("Cc1ccc(NC(=O)c2nc(S(=O)(=O)Cc3ccccc3C)ncc2Cl)cc1C", "GFP response relative to DMSO", 107),
    ("CC(NC(=O)C1CCC(CNS(=O)(=O)c2ccccc2)CC1)c1ccccc1 (configuration not stated)", "GFP response relative to DMSO", 99.5),
    ("CNc1cc(CSC)nc(SCc2ccc(Cl)cc2Cl)n1", "GFP response relative to DMSO", 131),
    ("O=C(COc1ccccc1)N1CCN(c2ncnc3c2cnn3-c2ccccc2)CC1", "GFP response relative to DMSO", 105),
    ("Cc1cccc(C(=O)NNC(=S)NC(=O)c2ccccc2)c1", "GFP response relative to DMSO", 128),
    ("N#C/C(=C\\c1c(N2CCCCC2)nc2ccccn2c1=O)C(=O)NCc1ccco1", "GFP response relative to DMSO", 96.5),
    ("CCSC1=NCCN1S(=O)(=O)c1ccc(F)cc1", "GFP response relative to DMSO", 106),
    ("CCOc1ccccc1NC(=O)c1nc(S(=O)(=O)Cc2ccccc2)ncc1Cl", "GFP response relative to DMSO", 95.4),
    ("O=C(NCCO)c1c(O)c2cccc3c2n(c1=O)CC3", "GFP response relative to DMSO", 94.2),
    ("CCCC(=O)Nc1ccc(NC(=O)c2cc3ccccc3o2)c(OC)c1", "GFP response relative to DMSO", 98.4),
    ("O=C(COC(=O)c1cccs1)Nc1nc(-c2ccccc2)cs1", "GFP response relative to DMSO", 99.3),
    ("O=C(Nc1ccccc1)c1ccccc1O", "GFP response relative to DMSO", 114),
    ("COC(=O)c1ccc(/C=C/C(=O)c2cccc(OC)c2)cc1", "GFP response relative to DMSO", 116),
    ("O=C(Nc1ccccc1O)c1ccccc1O", "GFP response relative to DMSO", 95.4),
    ("CCN(CC)C(=O)Cn1c(C)c(/C=C/c2cc[n+](C)cc2)c2ccccc21", "GFP response relative to DMSO", 107),
    ("CCCc1nnc(NC(=O)c2nc(S(=O)(=O)Cc3ccc(C)cc3)ncc2Cl)s1", "GFP response relative to DMSO", 104),
]
